Reference source: paper PMC3518313

target: αY60W-CaaD (Pseudomonas pavonaceae, UniProt Q9EV84+Q9EV85, Q9EV85:Y61W)
experiment: Global fitting of kinetic data to the six-step model
Format: biochemical, Pseudomonas pavonaceae 170
experimental_context: read-out: Kd,Br, best fit; global fit; k5 held fixed at 200 s^−1
metric_name: Kd (mM)
One number for each entry, in mM.

If you can, please state the reported Kd value of Br [bromide] .
12.5

----------
target: αY60W-CaaD (Pseudomonas pavonaceae, UniProt Q9EV84+Q9EV85, Q9EV85:Y61W)
experimental_context: competitive inhibition; 9 at 35–200 μM, bromide 0–50,000 μM
metric_name: Ki

If you can, please state the reported Ki value of Br [bromide] .
~10 mM

----------
target: αY60W-CaaD (Pseudomonas pavonaceae, UniProt Q9EV84+Q9EV85, Q9EV85:Y61W)
Sequence (Q9EV85 2-76 Y61W): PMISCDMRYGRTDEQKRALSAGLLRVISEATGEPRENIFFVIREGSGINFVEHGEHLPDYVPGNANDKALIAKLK
Sequence (Q9EV84 2-71): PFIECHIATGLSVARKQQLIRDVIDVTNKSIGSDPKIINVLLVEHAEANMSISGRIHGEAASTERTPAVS
experiment: Stopped-flow fluorescence binding of malonate semialdehyde
Design: species or system Pseudomonas pavonaceae 170
experimental_context: Kd (koff / kon), estimate from conventional kon and koff
metric_name: pKd
Answers are plain numbers, as −log10 of the molar value.

Requested read-out pKd, target or system αY60W-CaaD (Pseudomonas pavonaceae, UniProt Q9EV84+Q9EV85, Q9EV85:Y61W), entry O=CCC(=O)O [compound 4, malonate semialdehyde]
2.96

----------
target: αY60W-CaaD (Pseudomonas pavonaceae, UniProt Q9EV84+Q9EV85, Q9EV85:Y61W)
Sequence (Q9EV85 2-76 Y61W): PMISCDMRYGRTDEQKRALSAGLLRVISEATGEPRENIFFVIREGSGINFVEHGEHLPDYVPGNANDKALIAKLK
Sequence (Q9EV84 2-71): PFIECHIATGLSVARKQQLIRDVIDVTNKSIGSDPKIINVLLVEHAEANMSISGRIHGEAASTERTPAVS
experimental_context: read-out: predicted Kd; saturation of the fluorescence signal, hyperbolic fit
metric_name: Kd (mM)
Give bare numbers, in mM.

If you can, please state the reported Kd value of Br [bromide] .
7.4

----------
target: αY60W-CaaD (Pseudomonas pavonaceae, UniProt Q9EV84+Q9EV85, Q9EV85:Y61W)
experimental_context: read-out: Kd, Br-; fit by simulation, koff fixed at 200 s^−1
metric_name: pKd
Give bare numbers, as −log10 of the molar value.

Requested read-out pKd, target or system αY60W-CaaD (Pseudomonas pavonaceae, UniProt Q9EV84+Q9EV85, Q9EV85:Y61W), entry Br [bromide]
1.92

----------
target: βI37W-CaaD (Pseudomonas pavonaceae, UniProt Q9EV84+Q9EV85, Q9EV84:I38W)
experiment: biochemical
metric_name: Kd

If you can, please state the reported Kd value of O=C(O)/C=C/Br [compound 9, trans-3-bromoacrylate] .
> 40 mM

----------
target: αY60W-CaaD (Pseudomonas pavonaceae, UniProt Q9EV84+Q9EV85, Q9EV85:Y61W)
experiment: Stopped-flow fluorescence binding of malonate semialdehyde
Design: species or system Pseudomonas pavonaceae 170
experimental_context: Kd, end-point fluorescence titration fit to Equation S2
metric_name: Kd
Give the figure together with its unit, number first.

If you can, please state the reported Kd value of O=CCC(=O)O [compound 4, malonate semialdehyde] .
380 µM
